For each of the molecules below, state its IC50.
target system: recombinant human CLK3 (Homo sapiens, UniProt P49761)
Sequence (P49761 whole entry): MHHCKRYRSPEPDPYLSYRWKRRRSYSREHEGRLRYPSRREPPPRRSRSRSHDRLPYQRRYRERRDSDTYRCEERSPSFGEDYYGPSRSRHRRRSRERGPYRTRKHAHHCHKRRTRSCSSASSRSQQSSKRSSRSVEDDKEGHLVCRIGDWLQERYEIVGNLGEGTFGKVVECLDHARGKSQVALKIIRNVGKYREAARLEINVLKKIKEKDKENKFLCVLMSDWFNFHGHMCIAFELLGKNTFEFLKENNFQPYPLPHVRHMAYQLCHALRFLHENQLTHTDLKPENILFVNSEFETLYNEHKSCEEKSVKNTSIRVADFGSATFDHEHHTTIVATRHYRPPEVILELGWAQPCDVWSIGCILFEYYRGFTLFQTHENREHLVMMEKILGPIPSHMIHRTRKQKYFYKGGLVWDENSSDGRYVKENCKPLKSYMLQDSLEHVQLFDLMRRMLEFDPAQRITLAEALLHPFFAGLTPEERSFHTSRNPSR
method: CLK3 kinase assay (LANCE Ultra)
condition context: CLK3 0.5 nM, ATP 300 μM, 3 hours at 30° C.

Reference set (3 entries):
molecule	result
COCCNc1c(O[C@H]2CC[C@H](N)CC2)ccc2c1CC(C)(C)c1c(N)ncnc1-2	101 to 1000 nM
COc1ccc2c(c1N(C)CCC#N)CC(C)(C)c1c(N)ncnc1-2	< 30 nM
CN(CCC#N)c1c(OC2CCCNCC2)ccc2c1CC(C)(C)c1c(N)ncnc1-2 (centres unmarked)	< 30 nM

Items follow; give IC50 for each.
1. CN(CCC(=O)O)c1c(O[C@H]2CC[C@H](N)CC2)ccc2c1CC(C)(C)c1c(N)ncnc1-2
2. CC1(C)Cc2c(ccc(O[C@H]3CC[C@@H](N)CC3)c2NC[C@@H]2CNC(=O)O2)-c2ncnc(N)c21
3. Nc1ncnc2c1C1(CCCC1)Cc1c-2ccc(O[C@H]2CC[C@H](N)CC2)c1NCCO
4. COc1ccc2c(c1C)CC(C)(C)c1c(N)ncnc1-2
5. COCCNc1c(O[C@H]2CC[C@@H](N)CC2)ccc2c1CC1(CCCC1)c1c(N)ncnc1-2

Response line:
1. 30 to 100 nM
2. < 30 nM
3. 30 to 100 nM
4. < 30 nM
5. 30 to 100 nM
